Field: IC50. Provide a value for each of the molecules that follow.

Measured IC50 (CYP 2C9 (Homo sapiens)), entry C=CC(=O)N1CCN(c2nc(=O)n(-c3c(C)ccnc3C(C)C)c3nc(-c4c(O)cccc4F)c(F)cc23)[C@@H](C)C1 : > 10000 nM

Measured IC50 (CYP 2C9 (Homo sapiens)), entry C=C(F)C(=O)N1CCN(c2nc(OC[C@@H]3CCCN3C)nc3c2CCN(c2cccc4cccc(Cl)c24)C3)C[C@@H]1CC#N : 1350 nM

* * *

Field: IC50. Provide a value for each of the compounds that follow.

Measured IC50 (CYP1A2 (Homo sapiens)), entry C=CC(=O)N1CCN(c2nc(=O)n(-c3c(C)ccnc3C(C)C)c3nc(-c4c(O)cccc4F)c(F)cc23)[C@@H](C)C1 : > 10 µM

Measured IC50 (CYP1A2 (Homo sapiens)), entry C=C(F)C(=O)N1CCN(c2nc(OC[C@@H]3CCCN3C)nc3c2CCN(c2cccc4cccc(Cl)c24)C3)C[C@@H]1CC#N : > 10 µM
